Numbers sourced from paper PMC6348381.

Quick note: these are Kd numbers for system: MLLT3 YD (Homo sapiens, UniProt P42568)
Sequence (P42568 1-138 limits assumed): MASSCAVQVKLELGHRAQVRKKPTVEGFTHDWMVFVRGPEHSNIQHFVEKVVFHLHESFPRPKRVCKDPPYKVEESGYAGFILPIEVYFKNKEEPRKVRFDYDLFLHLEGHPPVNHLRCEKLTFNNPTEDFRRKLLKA
The answer is to be given in nM; state only the numeric part.

substanceSmiles | Kd [nM]
C[C@@H]1CCCN1Cc1nc2cc(NC(=O)c3ccc4c(cnn4C)c3)ccc2[nH]1 | 540

Let's switch to this compound now.
Measured on MLLT3 YD (Homo sapiens, UniProt P42568), C[C@H]1CCCN1Cc1nc2cc(NC(=O)c3ccc4c(cnn4C)c3)ccc2[nH]1 has a documented Kd of 77

---

# experimentalTarget: CBP (Homo sapiens)
# Sequence (Q92793 1085-1192 limits assumed): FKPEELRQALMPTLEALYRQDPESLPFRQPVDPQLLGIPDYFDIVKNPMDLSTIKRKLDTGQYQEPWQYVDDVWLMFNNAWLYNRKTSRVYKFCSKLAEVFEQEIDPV
measurementKind: IC50

Hey, CBP (Homo sapiens) data for C[C@H]1CCCN1Cc1nc2cc(NC(=O)c3ccc4c(cnn4C)c3)ccc2[nH]1 [Compound 92] : IC50 came out at > 10 µM
